Values were extracted from patent US12673921B2.

# run_description: Liver microsome stability test, Beagle dog liver microsome
# Type: in vitro ADME
# conditions: liver microsomes, 0.5 mg protein/mL microsome, 1 μM compound, 37° C., NADPH, read-out: DLM 0.5 T1/2 (min), half life in Beagle dog liver microsome
quantity_measured: half-life at 1 μM (min)
The response must be a number in min with no trailing unit.

Which half-life at 1 μM value is on record for "Cc1n(CCCCCCCCCCCCCCCCF)cc[n+]1Cc1c(Cl)cccc1Cl.Cl" ? 8.5

* * *

# run_description: Liver microsome stability test, human liver microsome
# Format: in vitro ADME
# conditions: microsomes, 0.5 mg protein/mL microsome, 1 μM compound, 37° C., NADPH, read-out: HLM 0.5 T1/2 (min), half life in human liver microsome
half-life at 1 μM for assorted molecules

>>> result("CC(C)c1n(CCCCCCCCCCCC(F)(F)C(F)(F)C(F)(F)C(F)(F)C(F)(F)F)cc[n+]1Cc1c(Cl)cccc1Cl.[Cl-]")
"85.3 min"
>>> result("Cc1n(CCCCCCCCCCCC(F)(F)C(F)(F)C(F)(F)C(F)(F)F)cc[n+]1Cc1c(Cl)cccc1Cl.[Cl-]")
"> 145 min"
>>> result("Cc1n(CCCCCCCCCCCC(F)(F)C(F)(F)C(F)(F)C(F)(F)C(F)(F)F)cc[n+]1Cc1c(Cl)cccc1Cl.[I-]")
"> 145 min"
>>> result("Cc1n(CCCCCCCCCCCC(F)(F)C(F)(F)C(F)(F)C(F)(F)C(F)(F)C(F)(F)F)cc[n+]1Cc1c(Cl)cccc1Cl.[Cl-]")
"> 145 min"
>>> result("Cc1n(CCCCCCCCCCCC(F)(F)C(F)(F)C(F)(F)C(F)(F)C(F)(F)F)cc[n+]1Cc1c(F)cccc1Cl.[Cl-]")
"192 min"

Which half-life at 1 μM value is on record for "FC(F)(F)C(F)(F)C(F)(F)C(F)(F)C(F)(F)CCCCCCCCCCCn1cc[n+](Cc2c(Cl)cccc2Cl)c1C1CC1.[Cl-]" ? 93 min

Which half-life at 1 μM value is on record for "Cc1n(CCCCCCCCCCCC(F)(F)C(F)(F)C(F)(F)F)cc[n+]1Cc1c(Cl)cccc1Cl.[Cl-]" ? > 145 min

Which half-life at 1 μM value is on record for "Cc1n(CCCCCCCCCCCC(F)(F)C(F)(F)C(F)(F)C(F)(F)C(F)(F)F)cc[n+]1Cc1c(Cl)cccc1Cl.[Cl-]" ? > 145 min
